Values were extracted from patent US20090118167A1.

Can you tell me AUC0-last for the items I'm about to list?
RUN CONDITIONS: rat, in vivo, sc, 0.1 mg/kg
Square brackets hold non-standard residues; d marks the D form. Ends that are not written are not given here. Nle = CCCC[C@H](N)C(=O)O; Aib = CC(C)(N)C(=O)O
Could you give me the number in ng·h/mL? Just the number is fine.

I'd like to know its AUC0-last. The substance in question is P348: cyclic PEGylated VPAC2 receptor peptide agonist (HSDAVFTENYTKLR[Aib]Q[Nle]AAKKYLNDLK[Aib]KGGPSSGAPPPC; not fully specified (residue 40); ends and bridges not checked; also: cyclic, bridge type and places not given here, PEGylated, site not placed) [Agonist P348] 1007

Same question for P255: cyclic PEGylated VPAC2 receptor peptide agonist (HSDAVFTENYTKL[Aib]KQ[Nle]AAKKYLNDLKQGGPSSGAPPPC; not fully specified (residue 39); ends and bridges not checked; also: cyclic, bridge type and places not given here, PEGylated, site not placed) [Agonist P255] please. 5797

Same question for P201: cyclic PEGylated VPAC2 receptor peptide agonist; P200 reacted with methoxy-PEG2-MAL-40K (HSDAVFTENYTKLRKQ[Nle]AAKKYLNDLKKGGPSSGAPPPC(methoxy‑PEG2‑MAL‑40K); ends and bridges not checked; also: cyclic, bridge kind and places not given here) [Agonist P201] please. 8101

Same question for P257: cyclic PEGylated VPAC2 receptor peptide agonist (HSDAVFTENYTKL[Aib]KQ[Nle]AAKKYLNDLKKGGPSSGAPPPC; not fully specified (residue 39); ends and bridges not checked; also: cyclic, bridge type and places not given here, PEGylated, site not placed) [Agonist P257] please. 4396
